These data points were gathered from the supplement of paper PMC8007513.

# Lookup of reported growth yield keyed by entry
system: Trichoderma virens ATCC 9645; experiment: growth yield (OD600) with compound + IPBC relative to untreated control; higher = less growth inhibition; settings: compound concentration: 100 uM; IPBC concentration: 200 ng/ml; 40 h
Counter-ions that a name gives are not always drawn. The campaign covered roughly 1,300 compounds. About 130 (10%) showed an effect of 50% or more. This excerpt belongs to a sample that is enriched for strong results.
Field format: number, assumed %, no unit text.

Example entries and their recorded answers appear below.
>  <molecule>
CNCC[C@@H](Oc1ccccc1C)c1ccccc1 [Tomoxetine hydrochloride] + CCCCNC(=O)OCC#CI [3-iodo-2-propynyl butylcarbamate (IPBC)]

>  <property.measured>
growth yield

>  <test.result>
78.3

$$$$
>  <molecule>
COC(=O)Nc1nc2cc([S+]([O-])c3ccccc3)ccc2[nH]1 (stereo unspecified) [Oxfendazol] + CCCCNC(=O)OCC#CI [3-iodo-2-propynyl butylcarbamate (IPBC)]

>  <property.measured>
growth yield

>  <test.result>
93.4

$$$$
>  <molecule>
CCCOc1ccc2[nH]c(NC(=O)OC)nc2c1 [Oxibendazol] + CCCCNC(=O)OCC#CI [3-iodo-2-propynyl butylcarbamate (IPBC)]

>  <property.measured>
growth yield

>  <test.result>
44.6

$$$$
>  <molecule>
CCc1c(C)[nH]c2c1C(=O)C(CN1CCOCC1)CC2 (stereo unspecified) [Molindone hydrochloride] + CCCCNC(=O)OCC#CI [3-iodo-2-propynyl butylcarbamate (IPBC)]

>  <property.measured>
growth yield

>  <test.result>
102

$$$$
>  <molecule>
COC(=O)Nc1nc2cc(C(=O)c3ccc(F)cc3)ccc2[nH]1 [Flubendazol] + CCCCNC(=O)OCC#CI [3-iodo-2-propynyl butylcarbamate (IPBC)]

>  <property.measured>
growth yield

>  <test.result>
86.4

$$$$

Below: the item to evaluate.
Lookup: Please list growth yield recorded for the molecule Oc1ncnc2[nH]ncc12 [Allopurinol] + CCCCNC(=O)OCC#CI [3-iodo-2-propynyl butylcarbamate (IPBC)]
Found: 93.4
